experimental target: T1, Rv3066 (TetR-family regulator) (Mycobacterium tuberculosis H37Rv, UniProt I6X658 1-202)
T1 sequence: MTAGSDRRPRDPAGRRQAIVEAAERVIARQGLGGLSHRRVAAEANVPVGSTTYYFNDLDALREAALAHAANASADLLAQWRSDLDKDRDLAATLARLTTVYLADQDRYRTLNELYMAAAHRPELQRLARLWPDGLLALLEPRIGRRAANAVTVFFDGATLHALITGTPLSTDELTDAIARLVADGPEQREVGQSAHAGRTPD
method description: fluorescence polarization
quantity name: pKd
Convention used: pKd is expressed as -log10 of the molar concentration.

Exercise: # lookup: pKd of 30-bp IR1 dsDNA, fluorescein (dsDNA) DNA 1: CGAGCCTCCTTTGTGTACATTTGTACATGT DNA 2: ACATGTACAAATGTACACAAAGGAGGCTCG
Key: 8.36
